Each entry below carries its reported pIC50.
target: Aurora kinase B (Homo sapiens, UniProt Q96GD4)
Sequence (Q96GD4 whole entry): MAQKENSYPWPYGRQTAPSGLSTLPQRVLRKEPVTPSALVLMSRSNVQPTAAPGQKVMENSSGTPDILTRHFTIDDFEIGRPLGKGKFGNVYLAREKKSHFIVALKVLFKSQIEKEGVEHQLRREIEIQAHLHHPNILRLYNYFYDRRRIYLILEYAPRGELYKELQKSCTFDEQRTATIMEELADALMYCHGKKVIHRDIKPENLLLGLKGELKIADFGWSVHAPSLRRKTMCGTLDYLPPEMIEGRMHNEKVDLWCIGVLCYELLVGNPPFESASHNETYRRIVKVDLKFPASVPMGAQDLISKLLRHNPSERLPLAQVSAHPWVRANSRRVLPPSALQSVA
Hey, just a heads up that pIC50 is the negative log base 10 of the concentration in molar.

COc1cc2c(Nc3ccc(-c4nc5ccccc5s4)c(Cl)c3)ncnc2cc1OCCCN1CCN(C)CC1; 7.11
COc1cc2ncnc(Nc3ccc(-c4nc5ccccc5s4)cc3F)c2cc1OCCCN1CCN(C)CC1; 6.39
COc1cc2c(Nc3ccc(-c4nc5ccccc5s4)c(C)c3)ncnc2cc1OCCCN1CCN(C)CC1; 6.59
COc1cc2c(Nc3ccc(-c4nc5cc(C(F)(F)F)ccc5s4)cc3)ncnc2cc1OCCCN1CCN(C)CC1; 6.92
COc1cc2ncnc(Nc3ccc(-c4nc5ccccc5s4)cc3O)c2cc1OCCCN1CCN(C)CC1; 6.10
COc1cc2c(Nc3ccc(-c4nc5ccc(Cl)cc5s4)cc3F)ncnc2cc1OCCCN1CCN(C)CC1; 7.05
COc1cc2c(Nc3ccc(-c4nc5ccccc5s4)cc3F)ncnc2cc1OCCCN1CCN(C)CC1; 7.55

Kindly consider the entry below.
// query Please report the measured pIC50 for "COc1cc(-c2nc3ccccc3s2)ccc1Nc1ncnc2cc(OCCCN3CCN(C)CC3)c(OC)cc12" tested on Aurora kinase B (Homo sapiens, UniProt Q96GD4).
// result 7.05

----------
target: Aurora kinase B (Homo sapiens, UniProt Q96GD4)
MEASUREMENT NAME: pIC50
Bear in mind: pIC50 is minus log10 of a mol/L concentration; give just that figure.

COc1cc2ncnc(Nc3ccc(-c4nc5cc(Cl)ccc5s4)cc3)c2cc1OCCCN1CCN(C)CC1; 6.30
COc1cc2ncnc(Nc3ccc(-c4nc5cc(C(F)(F)F)ccc5s4)cc3)c2cc1OCCCN1CCN(C)CC1; 5.68
COc1cc2ncnc(Nc3ccc(-c4nc5ccccc5s4)c(F)c3)c2cc1OCCCN1CCN(C)CC1; 6.17
COc1cc2c(Nc3ccc(-c4nc5ccc(Cl)cc5s4)cc3)ncnc2cc1OCCCN1CCN(C)CC1; 7.19
COc1cc2c(Nc3ccc(-c4nc5cc(Cl)ccc5s4)cc3)ncnc2cc1OCCCN1CCN(C)CC1; 7.21

// query Write down measured pIC50 (Aurora kinase B (Homo sapiens, UniProt Q96GD4)) for this molecule. "COc1cc2c(Nc3ccc(-c4nc5ccccc5s4)cc3O)ncnc2cc1OCCCN1CCN(C)CC1"
// result 6.57

// query Specify the recorded pIC50 for "COc1cc2c(Nc3ccc(-c4nc5ccccc5s4)c(F)c3)ncnc2cc1OCCCN1CCN(C)CC1" , system: Aurora kinase B (Homo sapiens, UniProt Q96GD4).
// result 7.57

// query Provide pIC50, tested on Aurora kinase B (Homo sapiens, UniProt Q96GD4), for "COc1cc2ncnc(Nc3ccc(-c4nc5ccccc5s4)cc3O)c2cc1OC" .
// result 5.38

----------
molecular target: Vascular endothelial growth factor receptor 3 (Homo sapiens)
Sequence (P35916 whole entry): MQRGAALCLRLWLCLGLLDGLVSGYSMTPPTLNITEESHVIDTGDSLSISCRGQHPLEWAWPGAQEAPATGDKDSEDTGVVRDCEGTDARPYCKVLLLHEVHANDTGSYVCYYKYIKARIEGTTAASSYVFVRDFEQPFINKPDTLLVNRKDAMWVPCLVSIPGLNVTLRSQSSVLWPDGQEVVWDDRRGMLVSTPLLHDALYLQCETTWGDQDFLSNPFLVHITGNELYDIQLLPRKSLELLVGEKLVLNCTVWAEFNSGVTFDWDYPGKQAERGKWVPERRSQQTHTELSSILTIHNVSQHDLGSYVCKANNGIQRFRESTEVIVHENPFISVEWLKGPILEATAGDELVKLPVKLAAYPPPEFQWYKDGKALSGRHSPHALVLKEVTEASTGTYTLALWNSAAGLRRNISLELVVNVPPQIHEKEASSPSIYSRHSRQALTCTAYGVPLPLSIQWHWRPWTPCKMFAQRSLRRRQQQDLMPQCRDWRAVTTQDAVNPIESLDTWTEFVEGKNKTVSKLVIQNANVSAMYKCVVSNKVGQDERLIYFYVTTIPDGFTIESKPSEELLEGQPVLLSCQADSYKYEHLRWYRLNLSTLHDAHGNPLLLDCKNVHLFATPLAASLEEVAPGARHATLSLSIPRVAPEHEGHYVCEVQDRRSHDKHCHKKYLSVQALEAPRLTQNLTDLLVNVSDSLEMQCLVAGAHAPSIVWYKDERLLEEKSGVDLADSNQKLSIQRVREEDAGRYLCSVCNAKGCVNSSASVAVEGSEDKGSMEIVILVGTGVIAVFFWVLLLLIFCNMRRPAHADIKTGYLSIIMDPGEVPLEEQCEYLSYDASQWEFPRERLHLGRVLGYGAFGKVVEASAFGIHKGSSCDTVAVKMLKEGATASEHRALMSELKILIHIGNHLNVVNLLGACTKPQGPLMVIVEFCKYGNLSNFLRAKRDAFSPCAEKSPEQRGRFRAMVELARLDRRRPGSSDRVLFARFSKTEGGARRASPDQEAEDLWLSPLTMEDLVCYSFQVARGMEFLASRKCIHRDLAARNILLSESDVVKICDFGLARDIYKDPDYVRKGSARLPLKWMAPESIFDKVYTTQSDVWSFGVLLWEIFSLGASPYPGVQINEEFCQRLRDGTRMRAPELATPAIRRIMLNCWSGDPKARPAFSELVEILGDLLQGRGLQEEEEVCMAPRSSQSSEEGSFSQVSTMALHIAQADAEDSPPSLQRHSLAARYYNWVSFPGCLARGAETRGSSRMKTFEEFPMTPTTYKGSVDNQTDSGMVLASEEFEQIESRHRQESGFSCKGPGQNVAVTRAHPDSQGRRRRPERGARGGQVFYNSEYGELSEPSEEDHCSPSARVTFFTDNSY
Quick reference: pIC50 of the listed items.
pIC50 is defined as minus the log10 of a concentration measured in mol/L.

COc1cc2c(Oc3ccc(-c4nc5ccccc5s4)cc3F)ncnc2cc1OCCCN1CCN(C)CC1; 6.72
COc1cc2c(Nc3ccc(-c4nc5ccccc5s4)cc3O)ncnc2cc1OCCCN1CCN(C)CC1; 5.35
COc1cc2c(Nc3ccc(-c4nc5ccccc5s4)c(O)c3)ncnc2cc1OCCCN1CCN(C)CC1; 6.28
COc1cc2c(Nc3ccc(-c4nc5ccccc5s4)cc3C)ncnc2cc1OCCCN1CCN(C)CC1; 6.47

// query Give Vascular endothelial growth factor receptor 3 (Homo sapiens) pIC50 for the following compound: "COc1cc2c(Nc3ccc(-c4nc5cc(Cl)ccc5s4)cc3)ncnc2cc1OCCCN1CCN(C)CC1"
// result 5.89

// query Give pIC50; test system Vascular endothelial growth factor receptor 3 (Homo sapiens); compound "COc1cc2c(Nc3ccc(-c4nc5ccccc5s4)cc3)ncnc2cc1OCCCN1CCN(C)CC1"
// result 7.16

----------
target: Angiopoietin-1 receptor (Homo sapiens, UniProt Q02763); test: Inhibition of TIE2 in human HCT116 cells by cellular phosphorylation assay; format: cell-based, HCT-116
Sequence (Q02763 whole entry): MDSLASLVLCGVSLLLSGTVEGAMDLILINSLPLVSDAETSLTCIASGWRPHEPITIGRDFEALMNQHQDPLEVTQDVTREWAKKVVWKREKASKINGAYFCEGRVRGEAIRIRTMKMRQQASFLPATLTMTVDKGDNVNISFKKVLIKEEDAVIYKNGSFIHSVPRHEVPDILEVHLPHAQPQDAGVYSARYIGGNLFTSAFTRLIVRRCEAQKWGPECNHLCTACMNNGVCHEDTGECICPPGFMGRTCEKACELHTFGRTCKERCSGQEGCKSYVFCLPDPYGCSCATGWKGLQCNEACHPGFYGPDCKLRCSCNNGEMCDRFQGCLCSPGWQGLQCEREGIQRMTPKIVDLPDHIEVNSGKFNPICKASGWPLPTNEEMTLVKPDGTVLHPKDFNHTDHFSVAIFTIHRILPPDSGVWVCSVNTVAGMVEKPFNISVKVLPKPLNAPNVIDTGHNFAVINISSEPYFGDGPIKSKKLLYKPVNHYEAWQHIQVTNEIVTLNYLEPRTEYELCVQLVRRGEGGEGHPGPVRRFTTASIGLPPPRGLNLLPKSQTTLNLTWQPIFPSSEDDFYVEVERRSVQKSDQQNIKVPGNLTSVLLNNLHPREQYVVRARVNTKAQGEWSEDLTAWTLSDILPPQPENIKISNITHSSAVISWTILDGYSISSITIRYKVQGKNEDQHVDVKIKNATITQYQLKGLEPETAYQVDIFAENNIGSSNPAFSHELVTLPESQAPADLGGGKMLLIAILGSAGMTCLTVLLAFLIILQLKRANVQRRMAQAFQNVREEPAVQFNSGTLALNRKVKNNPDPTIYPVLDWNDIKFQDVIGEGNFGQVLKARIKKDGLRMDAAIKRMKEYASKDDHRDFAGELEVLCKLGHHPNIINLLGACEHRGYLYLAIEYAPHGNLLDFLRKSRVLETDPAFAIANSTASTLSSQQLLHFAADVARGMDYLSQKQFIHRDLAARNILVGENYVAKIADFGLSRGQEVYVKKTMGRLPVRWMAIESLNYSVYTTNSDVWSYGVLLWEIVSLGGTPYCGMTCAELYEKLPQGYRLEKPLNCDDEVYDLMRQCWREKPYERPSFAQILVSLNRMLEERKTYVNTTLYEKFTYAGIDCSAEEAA
Catalogue of EC50 readings, one per entry.

COc1cc2c(Oc3ccc(-c4nc5ccccc5s4)cc3)ncnc2cc1OCCCN1CCN(C)CC1; 0.54 µM
COc1cc(-c2nc3ccccc3s2)ccc1Nc1ncnc2cc(OCCCN3CCN(C)CC3)c(OC)cc12; > 10 µM

Turning now to a further record.
// query For "COc1cc2c(Nc3ccc(-c4nc5ccc(F)cc5s4)cc3)ncnc2cc1OCCCN1CCN(C)CC1" , write its EC50.
// result > 10 µM

----------
molecular target: Receptor tyrosine-protein kinase erbB-2 (Homo sapiens, UniProt P04626); test: Inhibition of ERBB2 by microplate scintillation counting
MEASUREMENT NAME: log10(IC50) (log10 of the value in nM)
A difference of one corresponds to tenfold IC50; all values are log10 with IC50 in nM.

COc1cc2ncnc(Nc3ccc(-c4nc5ccccc5s4)cc3O)c2cc1OCCCN1CCN(C)CC1; 3.36
COc1ccc2nc(-c3ccc(Nc4ncnc5cc(OCCCN6CCN(C)CC6)c(OC)cc45)cc3)sc2c1; 2.11

// query Return log10(IC50) (reported value) for this molecule: "COc1cc2c(Nc3ccc(-c4nc5ccccc5s4)cc3O)ncnc2cc1OCCCN1CCN(C)CC1"
// result 3.56

// query Kindly indicate its recorded log10(IC50). Item: "COc1cc2c(Nc3ccc(-c4nc5ccccc5s4)c(O)c3)ncnc2cc1OCCCN1CCN(C)CC1"
// result 2.89

// query Quick one: give measured log10(IC50) for "COc1cc2c(Nc3ccc(-c4nc5ccccc5s4)c(F)c3)ncnc2cc1OCCCN1CCN(C)CC1"
// result 2.48

// query Look up and state reported log10(IC50) for "COc1cc2c(Nc3ccc(-c4nc5ccccc5s4)cc3)ncnc2cc1OCCCN1CCN(C)CC1"
// result 2.00

----------
Biological target: Aurora kinase A (Homo sapiens, UniProt O14965)
Sequence (O14965 whole entry): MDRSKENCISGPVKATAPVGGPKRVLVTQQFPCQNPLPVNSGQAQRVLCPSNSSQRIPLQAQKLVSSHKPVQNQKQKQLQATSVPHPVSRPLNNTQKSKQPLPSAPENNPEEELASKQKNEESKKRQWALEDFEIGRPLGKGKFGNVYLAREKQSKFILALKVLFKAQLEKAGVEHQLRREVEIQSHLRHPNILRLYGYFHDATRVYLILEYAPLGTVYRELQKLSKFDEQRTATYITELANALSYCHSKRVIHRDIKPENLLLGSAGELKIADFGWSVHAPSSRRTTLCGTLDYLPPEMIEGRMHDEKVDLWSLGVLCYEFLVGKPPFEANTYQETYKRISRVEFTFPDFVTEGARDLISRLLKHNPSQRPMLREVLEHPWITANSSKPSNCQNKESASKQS
// thresholds for IC50 classes: bin A: < 0.09 µM; bin B: ≥ 0.09 µM and < 0.4 µM; bin C: ≥ 0.4 µM

// query Into which category would you place "COc1cc2c(Oc3ccc(-c4nc5ccccc5s4)cc3F)ncnc2cc1OCCCN1CCN(C)CC1" ?
// result bin B

----------
# IC50 values compiled below
molecular target: Epidermal growth factor receptor (Homo sapiens)
Sequence (P00533 whole entry): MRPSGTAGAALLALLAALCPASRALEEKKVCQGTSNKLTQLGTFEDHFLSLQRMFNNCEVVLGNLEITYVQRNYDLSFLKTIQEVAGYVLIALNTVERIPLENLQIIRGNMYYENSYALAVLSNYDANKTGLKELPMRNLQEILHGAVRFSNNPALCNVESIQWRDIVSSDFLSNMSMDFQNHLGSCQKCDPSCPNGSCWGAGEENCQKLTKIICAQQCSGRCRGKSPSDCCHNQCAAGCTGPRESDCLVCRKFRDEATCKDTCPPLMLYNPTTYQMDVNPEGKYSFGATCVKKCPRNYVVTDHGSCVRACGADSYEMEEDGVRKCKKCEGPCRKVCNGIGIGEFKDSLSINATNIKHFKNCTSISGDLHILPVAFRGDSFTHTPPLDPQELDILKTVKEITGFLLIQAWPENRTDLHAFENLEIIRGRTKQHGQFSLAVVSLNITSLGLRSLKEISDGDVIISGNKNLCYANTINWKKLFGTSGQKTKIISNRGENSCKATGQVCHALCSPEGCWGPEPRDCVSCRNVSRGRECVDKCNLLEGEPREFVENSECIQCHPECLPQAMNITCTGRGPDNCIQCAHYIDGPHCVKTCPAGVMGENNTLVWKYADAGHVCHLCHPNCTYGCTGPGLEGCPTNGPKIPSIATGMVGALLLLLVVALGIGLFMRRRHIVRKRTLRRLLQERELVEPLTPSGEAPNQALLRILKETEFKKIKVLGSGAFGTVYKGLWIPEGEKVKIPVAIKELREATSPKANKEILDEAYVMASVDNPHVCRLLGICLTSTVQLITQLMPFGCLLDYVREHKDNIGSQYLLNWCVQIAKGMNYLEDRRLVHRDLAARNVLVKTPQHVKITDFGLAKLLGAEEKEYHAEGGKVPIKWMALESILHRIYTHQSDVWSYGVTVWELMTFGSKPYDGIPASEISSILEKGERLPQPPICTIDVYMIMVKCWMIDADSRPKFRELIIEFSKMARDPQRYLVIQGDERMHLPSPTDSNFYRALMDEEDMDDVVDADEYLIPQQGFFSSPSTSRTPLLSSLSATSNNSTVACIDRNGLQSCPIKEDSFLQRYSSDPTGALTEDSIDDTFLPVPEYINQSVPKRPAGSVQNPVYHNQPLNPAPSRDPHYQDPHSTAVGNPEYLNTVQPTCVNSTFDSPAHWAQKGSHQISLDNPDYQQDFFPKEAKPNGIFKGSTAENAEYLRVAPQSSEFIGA

COc1cc2c(Nc3ccc(-c4nc5ccccc5s4)cc3F)ncnc2cc1OCCCN1CCN(C)CC1; 0.805 µM
COc1cc2c(Nc3ccc(-c4nc5cc(C(F)(F)F)ccc5s4)cc3)ncnc2cc1OCCCN1CCN(C)CC1; > 10 µM
COc1cc2c(Nc3ccc(-c4nc5ccccc5s4)cc3OC(F)(F)F)ncnc2cc1OCCCN1CCN(C)CC1; > 10 µM

Now look at this entry.
// query Return the recorded IC50 value; entry: "COc1cc2c(Oc3ccc(-c4nc5ccccc5s4)cc3)ncnc2cc1OCCCN1CCN(C)CC1"
// result > 10 µM

----------
Entries with their measured pIC50, system Platelet-derived growth factor receptor beta (Homo sapiens, UniProt P09619):
For clarity, pIC50 is expressed as the negative log10 of concentration in mol/L.

Illustrative cases are given below, each with its answer.
COc1cc2ncnc(Nc3ccc(-c4nc5ccccc5s4)c(Cl)c3)c2cc1OCCCN1CCN(C)CC1; 5.11
COc1cc2c(Nc3ccc(-c4nc5ccc(Cl)cc5s4)cc3)ncnc2cc1OCCCN1CCN(C)CC1; 5.10
COc1cc2ncnc(Nc3ccc(-c4nc5ccccc5s4)c(OC)c3)c2cc1OCCCN1CCN(C)CC1; 5.42
COc1cc2c(Nc3ccc(-c4nc5ccccc5s4)cc3C)ncnc2cc1OCCCN1CCN(C)CC1; 5.17

Turning now to a further record.
// query Provide measured pIC50 value, entry: "COc1cc2ncnc(Nc3ccc(-c4nc5ccccc5s4)cc3)c2cc1OCCCN1CCN(C)CC1"
// result 5.42

----------
Below is a list of entries, each paired with its recorded pIC50 value.
molecular target: Vascular endothelial growth factor receptor 3 (Homo sapiens)
// scale note: pIC50 = -log10(conc_M); give the bare number

// query With Vascular endothelial growth factor receptor 3 (Homo sapiens) as the test system, provide measured pIC50 for this compound: "COc1ccc2nc(-c3ccc(Nc4ncnc5cc(OCCCN6CCN(C)CC6)c(OC)cc45)cc3)sc2c1"
// result 5.72

// query Fill in pIC50 for "COc1cc(-c2nc3ccccc3s2)ccc1Nc1ncnc2cc(OCCCN3CCN(C)CC3)c(OC)cc12" tested with Vascular endothelial growth factor receptor 3 (Homo sapiens).
// result 5.77

// query Report pIC50 from Vascular endothelial growth factor receptor 3 (Homo sapiens) testing of "COc1cc2c(Nc3ccc(-c4nc5ccc(Cl)cc5s4)cc3)ncnc2cc1OCCCN1CCN(C)CC1"
// result 5.03

// query Identify measured pIC50 obtained with Vascular endothelial growth factor receptor 3 (Homo sapiens) for "COc1cc2c(Nc3ccc(-c4nc5ccccc5s4)c(F)c3)ncnc2cc1OCCCN1CCN(C)CC1" .
// result 6.68

// query // fetch pIC50; item: "COc1cc2c(Nc3ccc(-c4nc5ccccc5s4)c(Cl)c3)ncnc2cc1OCCCN1CCN(C)CC1" ; system: Vascular endothelial growth factor receptor 3 (Homo sapiens)
// result 6.33

// query // output pIC50; input "COc1cc2c(Nc3ccc(-c4nc5ccc(Cl)cc5s4)cc3F)ncnc2cc1OCCCN1CCN(C)CC1" ; system Vascular endothelial growth factor receptor 3 (Homo sapiens)
// result 5.52

// query Would you please give the reported pIC50 of "COc1cc2c(Oc3ccc(-c4nc5ccccc5s4)cc3)ncnc2cc1OCCCN1CCN(C)CC1" with Vascular endothelial growth factor receptor 3 (Homo sapiens)?
// result 6.92
